Recorded values, source ChEMBL document CHEMBL4831522.

biological target: UniProt:P25779; assay: Inhibition of recombinant Trypanosoma cruzi cruzain using Z-FR-AMC as substrate and compound-enzyme complex preincubated for 5 mins in presence of 0.001% Triton-X100 by fluorometry relative to control
Sequence (P25779 123-467 limits assumed): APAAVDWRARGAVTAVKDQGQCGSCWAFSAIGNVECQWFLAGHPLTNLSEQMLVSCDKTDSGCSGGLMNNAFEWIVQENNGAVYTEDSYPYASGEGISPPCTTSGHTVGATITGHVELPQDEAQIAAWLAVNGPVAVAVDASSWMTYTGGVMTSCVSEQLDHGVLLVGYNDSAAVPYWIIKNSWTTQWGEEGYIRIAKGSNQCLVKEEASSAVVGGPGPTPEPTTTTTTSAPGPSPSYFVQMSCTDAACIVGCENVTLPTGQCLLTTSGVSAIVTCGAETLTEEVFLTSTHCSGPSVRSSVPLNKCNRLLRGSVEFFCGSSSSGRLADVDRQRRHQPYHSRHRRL
Param threshold (60%) applies to inhibition; output criterion met when value >= threshold, criterion not met when value < threshold.

# molecule smiles, discrete label
records = [
    ("c1ccc(CNc2nc(Nc3nccs3)nc3ccccc23)cc1", "criterion met"),
]

Q: Test whether the molecule O=C(c1ccc(Nc2nc(NCCCO)c3ccccc3n2)cc1)N1CCOCC1 records inhibition of 60% or higher.
Ans: criterion not met

Q: Test whether the molecule Oc1ccc(Nc2nc(NCc3ccccc3)c3ccccc3n2)cc1 records inhibition of 60% or higher.
Ans: criterion met

Q: Test whether the molecule Oc1cccc(Nc2nc(NCc3ccccc3)c3ccccc3n2)c1 records inhibition of 60% or higher.
Ans: criterion met

Q: Test whether the molecule c1ccc(Nc2nc(Nc3ccccc3)c3ccccc3n2)cc1 records inhibition of 60% or higher.
Ans: criterion met

Q: Test whether the molecule Clc1ccc(Nc2nc(NCCN3CCOCC3)c3ccccc3n2)cc1 records inhibition of 60% or higher.
Ans: criterion met

Q: Test whether the molecule COc1ccc(Nc2nc(NCc3ccccc3)c3ccccc3n2)cc1 records inhibition of 60% or higher.
Ans: criterion met

Q: Test whether the molecule OCCCNc1nc(NCc2ccccc2)c2ccccc2n1 records inhibition of 60% or higher.
Ans: criterion not met

Q: Test whether the molecule OCCCNc1nc(Nc2cccc(F)c2)c2ccccc2n1 records inhibition of 60% or higher.
Ans: criterion not met
